Source of measurements: patent US8536187B2

assay: CC50 assay (CellTiter-Glo) in Huh-7 HCV replicon cells; format: cell-based; conditions: human, Table 2, 3 days incubation
Assay endpoint: CC50 at 3 days

Observe how each entry below is paired with its result.
> print(dat)
                                   molecule      result
1  C[C@@H](Nc1nc(NCC(F)(F)F)c2nc(-c3cccc(S(C)(=O)=O)c3)ccc2n1)c1ccc(S(=O)(=O)NC(C)(C)C)cc1 [Example 136]     > 10 µM
2  C#Cc1ccc2nc(NCc3ccc(S(N)(=O)=O)cc3)nc(OC3CC3)c2n1 [Example 300]  1 to 10 µM

Exercise: I would be grateful if you could share the reported CC50 at 3 days for NS(=O)(=O)c1ccc(CNc2nc(NCC(F)(F)F)c3nc(C#CC4CC4)ccc3n2)cc1 [Example 279] .
Solution: > 10 µM

Exercise: I would be grateful if you could share the reported CC50 at 3 days for Cc1cc(CNc2nc(NC3(C(F)(F)F)CC3)c3nc(-c4ccc(F)cc4)ccc3n2)cc(S(N)(=O)=O)c1 [Example 82] .
Solution: > 10 µM

Exercise: I would be grateful if you could share the reported CC50 at 3 days for C[C@@H](Nc1nc(NC2(C(F)(F)F)CC2)c2nc(-c3ccc(N)nc3)ccc2n1)c1ccc(-n2cncn2)cc1 [Example 84] .
Solution: 1 to 10 µM

Exercise: I would be grateful if you could share the reported CC50 at 3 days for C[C@@H](Nc1nc(NC2(C(F)(F)F)CCCC2)c2nc(-c3ccc(F)cc3)ccc2n1)c1ccc(S(N)(=O)=O)cc1 [Example 71] .
Solution: > 10 µM

Exercise: I would be grateful if you could share the reported CC50 at 3 days for C[C@H](Cn1cncn1)Nc1nc(NCC(F)(F)F)c2nc(-c3ccc(OC(F)F)c(S(C)(=O)=O)c3)ccc2n1 [Example 206] .
Solution: > 10 µM

* * *

assay: CC50 assay (CellTiter-Glo) in Huh-7 HCV replicon cells; type: cell-based; conditions: human, Table 2, 3 days incubation
Assay endpoint: CC50 at 3 days

Exercise: I would be grateful if you could share the reported CC50 at 3 days for CC1(Oc2nc(NCc3ccc(-n4cncn4)cc3)nc3ccc(-c4ccc(OC5CC5)nc4)nc23)CC1 .
Solution: 1 to 10 µM

Exercise: I would be grateful if you could share the reported CC50 at 3 days for C[C@H](Cn1cncn1)Nc1nc(NCC(F)(F)F)c2nc(C#CC3CC3)ccc2n1 .
Solution: > 10 µM

Exercise: I would be grateful if you could share the reported CC50 at 3 days for C[C@@H](Nc1nc(OC2CC2)c2nc(-c3ccc(OC(F)F)c(S(C)(=O)=O)c3)ccc2n1)c1ccc(S(N)(=O)=O)cc1 .
Solution: > 10 µM

Exercise: I would be grateful if you could share the reported CC50 at 3 days for COc1ccc(-c2ccc3nc(NCc4ccc(S(N)(=O)=O)cc4)nc(NCC(F)(F)F)c3n2)cc1S(=O)(=O)N1CCOCC1 .
Solution: 1 to 10 µM

Exercise: I would be grateful if you could share the reported CC50 at 3 days for CS(=O)(=O)c1cc(-c2ccc3nc(NCc4ccc(-n5cncn5)cc4)nc(OC4CCC4)c3n2)ccc1OC(F)F .
Solution: 1 to 10 µM

Exercise: I would be grateful if you could share the reported CC50 at 3 days for CCOc1ccc(-c2ccc3nc(N[C@H](C)c4ccc(S(N)(=O)=O)cc4)nc(OC4(C)CC4)c3n2)cc1S(N)(=O)=O .
Solution: 1 to 10 µM

Exercise: I would be grateful if you could share the reported CC50 at 3 days for C#Cc1ccc2nc(NCc3ccc(S(N)(=O)=O)cc3)nc(NCC(F)(F)F)c2n1 .
Solution: 1 to 10 µM

Exercise: I would be grateful if you could share the reported CC50 at 3 days for C#Cc1ccc2nc(NCc3ccc(S(N)(=O)=O)cc3)nc(N[C@@H](C)C(F)(F)F)c2n1 .
Solution: 1 to 10 µM

* * *

test: CC50 assay (CellTiter-Glo) in Huh-7 HCV replicon cells; type: cell-based; settings: human, Table 2, 3 days incubation
Assay endpoint: CC50 at 3 days

> print(dat)
                            compound.smiles      result
1  Fc1cc(-c2ccc3nc(NCc4cccc(-n5cncn5)c4)nc(NC4(C(F)(F)F)CC4)c3n2)cnc1NC1CC1     > 10 µM
2  CC(C)(O)CNc1nc(NCC(F)(F)F)c2nc(-c3cccc(S(C)(=O)=O)c3)ccc2n1     > 10 µM
3  C[C@@H](Cn1cncn1)Nc1nc(NCC(F)(F)F)c2nc(-c3cccc(S(C)(=O)=O)c3)ccc2n1     > 10 µM
4  CS(=O)(=O)c1cc(-c2ccc3nc(NCc4ccc(-n5cncn5)cc4)nc(O[C@@H]4C[C@@H]5C[C@@H]5C4)c3n2)ccc1OC(F)F  1 to 10 µM
5  CCOc1ccc(-c2ccc3nc(N[C@H]4CCN(C(=O)[C@H](NC(=O)OC)C(C)C)C4)nc(NCC(F)(F)F)c3n2)cc1S(N)(=O)=O  1 to 10 µM

Exercise: I would be grateful if you could share the reported CC50 at 3 days for CCc1cc(S(N)(=O)=O)ccc1CNc1nc(NC2(C(F)(F)F)CC2)c2nc(-c3ccc(F)cc3)ccc2n1 .
Solution: 1 to 10 µM

Exercise: I would be grateful if you could share the reported CC50 at 3 days for CC(C)Oc1ccc(-c2ccc3nc(NCc4ccc(-n5cncn5)cc4)nc(NCC(F)(F)F)c3n2)cn1 .
Solution: > 10 µM

* * *

The reader will find reported CC50 at 3 days values listed item by item below.
test: CC50 assay (CellTiter-Glo) in Huh-7 HCV replicon cells; assay type: cell-based; details: human, Table 2, 3 days incubation

Observe how each entry below is paired with its result.
> print(dat)
                            compound.smiles  assay.endpoint      result
1  NC(=O)c1ccc(CNc2nc(NC3(C(N)=O)CC3)c3nc(-c4ccc(F)cc4)ccc3n2)cn1  CC50 at 3 days     > 10 µM
2  Cc1nc(C)n(-c2ccc(CNc3nc(OC4(C)CC4)c4nc(-c5ccc(OC(F)F)c(S(C)(=O)=O)c5)ccc4n3)cc2)n1  CC50 at 3 days     > 10 µM
3  COc1ccc(-c2ccc3nc(NCCS(N)(=O)=O)nc(NC4(C(F)(F)F)CC4)c3n2)cc1S(C)(=O)=O  CC50 at 3 days  1 to 10 µM

Then this compound:
Exercise: I would be grateful if you could share the reported CC50 at 3 days for Fc1ccc(-c2ccc3nc(NCc4ccc(-n5ccnc5)cc4)nc(NC4(C(F)(F)F)CC4)c3n2)cc1 .
Solution: 1 to 10 µM

* * *

Assay: CC50 assay (CellTiter-Glo) in Huh-7 HCV replicon cells
Type: cell-based
Details: human, Table 2, 3 days incubation
Method: The anti-HCV activity of the pyrido[3,2-d]pyrimidine derivatives of this invention was tested in a human hepatoma Huh-7 cell line harboring a HCV replicon. The assay comprised the following steps: • Step 1: compound preparation and serial dilution: serial dilution is performed in 50% DMSO in a 384-well plate. […]
Assay endpoint: CC50 at 3 days

Observe how each entry below is paired with its result.
> print(dat)
                            compound.smiles  assay.endpoint      result
1  COc1ccc(-c2ccc3nc(N[C@H](C)c4ccc(-n5cncn5)cc4)nc(NC4(C(F)(F)F)CC4)c3n2)cc1S(C)(=O)=O  CC50 at 3 days  1 to 10 µM
2  CS(=O)(=O)Nc1cccc(CNc2nc(NC3(C(F)(F)F)CC3)c3nc(-c4ccc(F)cc4)ccc3n2)c1  CC50 at 3 days     > 10 µM
3  Cc1cc(S(N)(=O)=O)ccc1[C@@H](C)Nc1nc(NC2(C(F)(F)F)CC2)c2nc(-c3ccc(F)cc3)ccc2n1  CC50 at 3 days     > 10 µM
4  C[C@@H](Nc1nc(OC2CCC2)c2nc(-c3ccc(OC4CC4)nc3)ccc2n1)c1ccc(S(N)(=O)=O)cc1  CC50 at 3 days  1 to 10 µM
5  NS(=O)(=O)c1cc(Cl)cc(CNc2nc(NC3(C(F)(F)F)CC3)c3nc(-c4ccc(F)nc4)ccc3n2)c1  CC50 at 3 days     > 10 µM
6  COc1ccc(-c2ccc3nc(NCc4cccc(-n5cncn5)c4)nc(NC4(C(F)(F)F)CC4)c3n2)cc1S(C)(=O)=O  CC50 at 3 days     > 10 µM
7  NS(=O)(=O)c1ccc(CNc2nc(NC3(C(F)(F)F)CC3)c3nc(-c4ccc(OC(F)F)cc4)ccc3n2)cc1  CC50 at 3 days  1 to 10 µM
8  C[C@@H](Nc1nc(NCC(F)(F)F)c2nc(-c3cccc(S(C)(=O)=O)c3)ccc2n1)c1ccc(-n2cncn2)cc1  CC50 at 3 days  1 to 10 µM

Exercise: I would be grateful if you could share the reported CC50 at 3 days for COc1nc(N[C@H](C)c2ccc(S(N)(=O)=O)cc2)nc2ccc(C#CC3CC3)nc12 .
Solution: > 10 µM

Exercise: I would be grateful if you could share the reported CC50 at 3 days for COc1ccc(-c2ccc3nc(NCc4cc(C(F)(F)F)cc(S(N)(=O)=O)c4)nc(NCC(F)(F)F)c3n2)cc1S(C)(=O)=O .
Solution: > 10 µM

Exercise: I would be grateful if you could share the reported CC50 at 3 days for FC(F)(F)CNc1nc(NCc2ccc(-n3cncn3)cc2)nc2ccc(-c3ccc(OC4CCC4)nc3)nc12 .
Solution: 1 to 10 µM

Exercise: I would be grateful if you could share the reported CC50 at 3 days for Cc1cc(S(N)(=O)=O)ccc1[C@H](C)Nc1nc(NC2(C(F)(F)F)CC2)c2nc(-c3ccc(F)cc3)ccc2n1 .
Solution: > 10 µM

Exercise: I would be grateful if you could share the reported CC50 at 3 days for Fc1ccc(-c2ccc3nc(NCc4cc(F)cc(-n5cncn5)c4)nc(NC4(C(F)(F)F)CC4)c3n2)cc1 .
Solution: > 10 µM

Exercise: I would be grateful if you could share the reported CC50 at 3 days for CS(=O)(=O)Nc1cncc(CNc2nc(NC3(C(F)(F)F)CC3)c3nc(-c4ccc(F)cc4)ccc3n2)c1 .
Solution: > 10 µM

Exercise: I would be grateful if you could share the reported CC50 at 3 days for CS(=O)(=O)Nc1cc(F)cc(CNc2nc(NC3(C(F)(F)F)CC3)c3nc(-c4ccc(F)cc4)ccc3n2)c1 .
Solution: > 10 µM

Exercise: I would be grateful if you could share the reported CC50 at 3 days for NS(=O)(=O)c1cc(CNc2nc(NC3(C(F)(F)F)CC3)c3nc(-c4ccc(F)cc4)ccc3n2)ccc1Cl .
Solution: > 10 µM

Exercise: I would be grateful if you could share the reported CC50 at 3 days for CC(C)(C)NS(=O)(=O)c1cc(F)cc(CNc2nc(NC3(C(F)(F)F)CC3)c3nc(-c4ccc(F)nc4)ccc3n2)c1 .
Solution: > 10 µM

Exercise: I would be grateful if you could share the reported CC50 at 3 days for COCC#Cc1ccc2nc(NCc3cc(Cl)cc(S(N)(=O)=O)c3)nc(NC3(C(F)(F)F)CC3)c2n1 .
Solution: > 10 µM

Exercise: I would be grateful if you could share the reported CC50 at 3 days for C[C@H](Nc1nc(NCc2ccc(-n3cncn3)cc2)nc2ccc(C#CC3CC3)nc12)C(F)(F)F .
Solution: > 10 µM

Exercise: I would be grateful if you could share the reported CC50 at 3 days for C[C@H](Cn1cncn1)Nc1nc(NCC(F)(F)F)c2nc(-c3ccc(OC4CC4)nc3)ccc2n1 .
Solution: > 10 µM
